# System: SN12C renal
# assay_text: NCI-60 one-dose screen, 48 h
# setup_conditions: 10 µM
The panel holds about 83,000 compounds, 20% with a hit somewhere; the sample as a whole holds those more often. Activity calls are given as the source filed them. The calls were made as follows: active = growth percent below 10; inactive = the rest.
# valid calls are true (1) = active, false (0) = inactive; nothing else

Solved cases below.
Cc1noc2c(Cc3ccccc3)nn(CC(=O)N/N=C/c3ccc(Br)cc3)c(=O)c12    true (1)
CC1CC(c2ccc(N(C)C)cc2)=NN1c1nc(O)c(C2=c3cc(Br)ccc3=NC2=O)s1 (configuration not stated)    false (0)
CCNCCCn1c2c(c3cc(OC)c(OC)cc3c1=O)C(=O)c1cc3c(nc1-2)OCO3    true (1)
CCOC(=O)CNC(=O)CN(Cc1ccccc1)C(=O)[C@@]1(C)CCC[C@]2(C)[C@H]3C[C@H]4C(C(C)C)=C[C@]3(CC[C@H]21)[C@@H]1C(=O)OC(=O)[C@@H]14    false (0)

Prompt: Please state the recorded outcome for this compound: Cc1ccc(/C=C/C(=O)c2ccc(NC(=O)CSc3nnc(-c4c[nH]c5ccccc45)n3-c3ccccc3)cc2)cc1
Response: false (0)

Prompt: Status in this test for COc1ccc(NC(=O)CSc2nnc(-c3ccc4nc(-c5ccc(Cl)cc5)[nH]c4c3)o2)cc1 ?
Response: false (0)

Prompt: // param item: Cc1ccc(S(=O)(=O)c2nc(-c3ccccc3)oc2S(=O)(=O)CC(=O)N2CCCC2)cc1 ; yields the recorded call
Response: true (1)

Prompt: Which outcome was entered for the compound CN1CCN(c2ccc(Nc3nc(N4CCN(S(=O)(=O)c5ccc(Cl)cc5)CC4)c4sccc4n3)cc2)CC1 in this test?
Response: false (0)

Prompt: I'd appreciate the recorded outcome for CCCCOc1ccc(Nc2nc3ccccc3nc2Nc2ccc(OCCCC)cc2)cc1 from this test.
Response: false (0)

Prompt: How did this test come out for CC1(C)[C@@H](NCO)CC[C@]2(C)[C@H]3C(=O)C=C4[C@@H]5C[C@](C)(CO)CC[C@]5(C)CC[C@@]4(C)[C@]3(C)CC[C@@H]12 ?
Response: false (0)

Prompt: For C#Cc1ccc(S(=O)(=O)Nc2cccc(-c3csc(NC(C)=O)n3)c2)cc1 , which call appears in the assay record?
Response: false (0)

Prompt: Short answer needed: outcome of this test for O=C(c1ccc(Cl)cc1)C1[C@H](c2ccc(Br)cc2)[C@@H](c2ccccc2)NC12C(=O)Nc1ccc(Cl)cc12 (some centres not stated) ?
Response: true (1)

Prompt: I'd appreciate the recorded outcome for C=CCn1c(SCC(=O)Nc2ccc(C(=O)/C=C/c3ccccc3)cc2)nnc1-c1c[nH]c2ccccc12 from this test.
Response: false (0)

Prompt: Given CC(=C(c1ccc(OCCN2CCCCC2)cc1)c1ccc(OCCN2CCCCC2)cc1)c1ccccc1 , state the outcome it received in this test.
Response: false (0)

* * *

# System: MDA-MB-468 breast
# assay_text: NCI-60 one-dose screen, 48 h (100 = growth as untreated, 0 = no growth, -100 = all killed)
# setup_conditions: 10 µM
This is part of a sample that, as a whole, favours compounds with a hit. Of some 83,000 tested, about 20% had one in any assay.
quantity_measured: growth (%)
State the answer as a number, implicitly in %.

These recorded examples may help you get a feel for the data.
O=C(CNc1nc(-c2ccccc2)cs1)Nc1ccc(Br)cc1    -84.1
O=c1c2ccccc2nc(COc2ccccc2)n1/N=C/c1ccc(N2CCCC2)cc1    137
COc1ccc(NC(=O)Cn2c(/C=C/c3ccc(N(C)C)cc3)nc3ccccc3c2=O)cc1    -25.4
CCCCOc1ccc(Nc2nc3ccccc3nc2Nc2ccc(OCCCC)cc2)cc1    73.8
Nc1nc(Nc2ccc(Cl)cc2)nn1Cc1cccc(Br)c1    28.1
N#Cc1c(-c2ccc(F)cc2)nc(SCc2ccc(F)cc2)nc1N1CCOCC1    62.1
O=C(Cn1cc(CSc2nnc3oc4ccccc4n23)nn1)Nc1ccc(Br)cc1    80.1
CC1(c2ccccc2)NC(=O)N(CC(=O)Nc2ccc(C(=O)/C=C/c3ccccc3)cc2)C1=O (stereo not drawn)    -2.64

Prompt: State, in one line, measured growth of COc1ccc(C(=O)/C=C/c2ccc(Cl)c(C(F)(F)F)c2)cc1S(N)(=O)=O
Response: -93.4

Prompt: Tell me its growth given CC(=C(c1ccc(OCCN2CCCCCC2)cc1)c1ccc(OCCN2CCCCCC2)cc1)c1ccc(Cl)cc1 as the entry.
Response: -91.6

Prompt: For the compound O=C1Nc2cc(Cl)ccc2/C1=C/c1cccc(OCc2ccc(Br)cc2F)c1 , give its reported growth.
Response: -9.05

Prompt: Check the records and state growth for N#Cc1ccc(-c2nn(-c3ccc(C(=O)O)cc3)cc2CNc2cc(Cl)cc(C(F)(F)F)c2)cc1
Response: -13.7

Prompt: Provide only the value of recorded growth for O=C(Nc1ccc(Cl)c(C(F)(F)F)c1)c1cncc(C#Cc2cnc3ccc(N4CCOCC4)nn23)c1
Response: -30.8

Prompt: Tell me its growth given O/N=C(\CSc1nnc(-c2c[nH]c3ccccc23)n1-c1ccccc1)c1ccc(Br)cc1 as the entry.
Response: -94.5

Prompt: For the compound O=C(CNc1nc(-c2ccccc2)cs1)Nc1cccc([N+](=O)[O-])c1 , report growth.
Response: -90.6

Prompt: Dear colleague, please send me the reported growth for C=CC(=O)Nc1nc(-c2cccc(NS(=O)(=O)c3cccc4c(N(C)C)cccc34)c2)cs1 when you can.
Response: -87.8

Prompt: Recall and state the measured growth for O=C(Cn1cc(CSc2nnc3oc4ccccc4n23)nn1)Nc1cccc(Cl)c1 .
Response: 37.7

Prompt: Give growth for the following compound: O=C(NC(=S)N1CCN(c2ncnc3c2cnn3-c2ccccc2)CC1)c1ccc(Cl)cc1
Response: 64.6

Prompt: Fill in growth for record COc1ccc(C2NC(=S)NC(C)=C2C(=O)OC(C)C)cc1OC (stereo not drawn)
Response: 98.9

Prompt: Look up and state reported growth for CN(C)c1ccc(/C=C/c2nc3ccccc3c(=O)n2CC(=O)Nc2ccccc2)cc1
Response: -4.96
